- test.name: reduction of polyQ htt aggregates in cells – imaging, exon1htt(103Q)mCFP cells, high-content imaging, primary screen (AID 483);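 note: compound exposure lasted 3 days before fixation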
- protocol.conditions: exon1htt(103Q)mCFP cell line, aggregate imaging, at 2 µM; hits give high values
measurement.kind: inhibition of aggregation (%)
Respond numerically; units are % and should not be typed.

Per the record, "Cc1oc(-c2ccccc2Cl)nc1CSCC(=O)N1CCCC1" has inhibition of aggregation of 19.4

Per the record, "CCOC(=O)N1CCC(Nc2ncnc3c2cnn3-c2ccc(C)cc2C)CC1" has inhibition of aggregation of 6.9

Per the record, "Cc1nc(-c2cccc(N)c2)cs1" has inhibition of aggregation of -14.5

Per the record, "CCOC(=O)c1cc2c(=O)n3ccccc3nc2n(CC(C)C)c1=NC(=O)c1ccco1" has inhibition of aggregation of 6.2

Per the record, "COc1ccc(CNc2oc(-c3ccccc3)nc2C#N)cc1" has inhibition of aggregation of -12.2

Per the record, "NCc1cccc(-n2cccn2)c1" has inhibition of aggregation of 1.2

Per the record, COc1ccc(C2c3c(oc4ccccc4c3=O)C(=O)N2Cc2ccncc2)cc1OC (configuration not stated) has inhibition of aggregation of -6.6

Per the record, CNC(=O)C1C2C=CC3(O2)C1C(=O)N(C1CC1)C3C(=O)NCc1ccc(OC)cc1 (configuration not stated) has inhibition of aggregation of -5.5

Per the record, "CN=C(Nc1cc(C)nn1-c1ccccc1)c1ccccc1" has inhibition of aggregation of -5.8

Per the record, "Cc1ccc(O)c(-c2cc3ccccc3[nH]2)c1" has inhibition of aggregation of 20

Per the record, "Cc1cc(NC(=O)CSc2nc3ccccc3n2CC(=O)N2CCCCC2)no1" has inhibition of aggregation of -15

Per the record, "O=C(NCc1ccc(F)cc1)c1cc2ccccn2n1" has inhibition of aggregation of 6

Per the record, "Cc1[nH]c2ccccc2c(=O)c1CN1CCCCC1" has inhibition of aggregation of -1.5

Per the record, "Cc1ccc(NC(=O)c2ccccc2O)cc1" has inhibition of aggregation of 8

Per the record, "Cc1cccc(OCCCc2c(C)n[nH]c2C)c1" has inhibition of aggregation of 7.5

Per the record, "CCOC(=O)N1CCC(NC(=O)c2ccc(CS(=O)(=O)c3c(Cl)cccc3Cl)o2)CC1" has inhibition of aggregation of 10.7

Per the record, "O=C(Nc1ccccc1N1CCCCC1)c1ncoc1-c1ccc(F)cc1" has inhibition of aggregation of -0.9

Per the record, "COc1ccc(S(=O)(=O)N(C)C2CCN(C)CC2)cc1" has inhibition of aggregation of -6.3

Per the record, "CC(=O)NCC(=O)N(Cc1ccco1)C1(C(=O)NC2CCCCC2)CCCCC1" has inhibition of aggregation of 19.5

Per the record, "O=C(CSc1nnnn1-c1ccc2c(c1)OCO2)NCc1cccs1" has inhibition of aggregation of 2.8

Per the record, "COc1ccccc1NC(=O)Cn1nnc(-c2ccccc2NC(=O)c2ccco2)n1" has inhibition of aggregation of -19

Per the record, "O=C(Cn1cnc2c(cnn2-c2ccc(F)cc2)c1=O)N1CCCc2ccccc21" has inhibition of aggregation of 2.1

Per the record, "Cc1ccc(-c2cc(C(=O)NCCN3CCOCC3)no2)cc1" has inhibition of aggregation of 41.6

Per the record, "Clc1ccc(CSc2nnc(Cn3cnc4ccccc43)o2)cc1" has inhibition of aggregation of 20.9

Per the record, COc1ccccc1-c1nc2n(n1)C(c1ccc(Cl)cc1)C(C(N)=O)=C(C)N2 (configuration not stated) has inhibition of aggregation of 4.3

Per the record, "Cc1cccc(Cn2c(SCC(=O)Nc3ccccc3)nc3c2c(=O)[nH]c(=O)n3C)c1" has inhibition of aggregation of 44.6

Per the record, COc1ccccc1NC(=O)CSC1CC(=O)N(c2ccc3c(c2)OCO3)C1=O (configuration not stated) has inhibition of aggregation of -2.5

Per the record, "CC(=O)Nc1c(-c2ccc(F)cc2)nc2ccccn12" has inhibition of aggregation of 16.5

Per the record, "Cc1c(NC(=O)c2ccc(CN3CCc4ccccc4C3)cc2)c(=O)n(-c2ccccc2)n1C" has inhibition of aggregation of -45.4

Per the record, "Nc1nc(SCc2ccc(Cl)cc2Cl)n[nH]1" has inhibition of aggregation of -21.4

Per the record, "Cc1cc(C)nc(N(C#N)CC(=O)N2CCC(C(N)=O)CC2)n1" has inhibition of aggregation of 12.3

Per the record, "CCOc1ccc(-c2nc(C#N)c(N3CCN(C)CC3)o2)cc1" has inhibition of aggregation of -9.4

----------
- test.name: blockers of RIG-like receptor reporter activation – cell-based, Sendai virus stimulus, luciferase, 10K MLSCN set, TLR/RLR signaling modifier project, primary screen (AID 602276);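 note: firefly luciferase from ISG56 promoter only with Renilla not read in this screen; 0% = Sendai virus plus DMSO and 100% = medium plus DMSO without virus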
- protocol.conditions: HEK293 RL24 IRF3 luciferase reporter, at 10 µM, hits give high values
measurement.kind: inhibition (%)
Respond numerically; units are % and should not be typed.

Per the record, Cc1cc2nc(C3CCN(CC4COc5ccccc5O4)CC3)[nH]c2cc1C (stereo unspecified) has inhibition of -0.371

Per the record, CC1=C(C(N)=O)C(c2ccncc2)n2nc(-c3ccccc3Cl)nc2N1 (stereo unspecified) has inhibition of 3.63

Per the record, "CCOC(=O)N1CCN(CC(=O)Nc2cc(C)nn2-c2nc3ccccc3s2)CC1" has inhibition of 13.7

Per the record, "CCN1CCN(C(=O)C2CCN(C(=O)c3cc4sccc4n3CC)CC2)CC1" has inhibition of 12.4

Per the record, "Cc1nc2c(-c3ccccc3)c(C)nn2c(C)c1CCC(=O)O" has inhibition of 13.6

Per the record, COC(=O)C1=C(C)Nc2nnnn2C1c1cccs1 (stereo unspecified) has inhibition of 4.45

Per the record, "CCCCOc1ccc(S(=O)(=O)n2c(C)nc3ccccc32)cc1" has inhibition of 9.07

Per the record, CS(=O)(=O)N1CCCC(C(=O)NCCCN2CCC(Cc3ccccc3)CC2)C1 (stereo unspecified) has inhibition of -7.21

Per the record, "Cc1cc(C(F)(F)F)nn1Cc1ccc(C(=O)NCc2ccco2)o1" has inhibition of -1.39

Per the record, O=C1CC(N2CCOCC2)C(=O)N1c1ccccc1Cl (stereo unspecified) has inhibition of 9.93

Per the record, "Cc1cccc(-n2ncc3c(N(CCO)CCO)ncnc32)c1" has inhibition of -28.4

Per the record, "CCOC(=O)c1cccc(NC(=O)CS(=O)(=O)Cc2nc(-c3cccc(OC)c3)oc2C)c1" has inhibition of -5.01

Per the record, "CC(=O)Nc1c2c(nn1-c1ccc(C)cc1C)CSC2" has inhibition of -12.5

Per the record, CC(CCC(=O)Nc1nncs1)C(=O)O (stereo unspecified) has inhibition of 9.72

Per the record, "Nc1cc(N)cc(-c2nc3ccccc3o2)c1" has inhibition of -12.2

Per the record, "c1ccc(Cc2ccc(OCCn3cncn3)cc2)cc1" has inhibition of -18.4

Per the record, "Cc1cc(C)n(S(=O)(=O)c2cc(C(=O)O)c(Cl)cc2Cl)n1" has inhibition of 13.3

Per the record, O=C1C2C3C=CC(C3)C2C(=O)N1c1cccc(N2C(=O)C3C4C=CC(C4)C3C2=O)n1 (stereo unspecified) has inhibition of 3.37

Per the record, "Nc1nnc(SCc2cc3c(cc2Cl)OCO3)s1" has inhibition of 0.13

Per the record, "O=C(Nc1cnn(C23CC4CC(CC(C4)C2)C3)c1)c1cnn2c(C(F)(F)F)cc(-c3ccco3)nc12" has inhibition of 8.99

Per the record, "COC(=O)COc1cccc(NC(=O)COc2ccccc2)c1" has inhibition of 1.13

Per the record, "CN(C)c1oc(-c2ccccc2Cl)nc1C#N" has inhibition of 6.71

Per the record, "O=C(c1ccco1)N1CCN(S(=O)(=O)c2ccc(Oc3ccccc3)cc2)CC1" has inhibition of 5.47

Per the record, "O=C(Nc1ccc(N2CCOCC2)cc1)c1cc2ccccc2o1" has inhibition of -72.9

Per the record, COc1ccc(OC)c(S(=O)(=O)N2c3ccccc3CC2C)c1 (stereo unspecified) has inhibition of 5.85

Per the record, "CC1(C)CC(=O)C(C=Nc2ccc3c(c2)OCO3)=C(O)C1" has inhibition of -6.77

Per the record, CCC(C)(C)n1nnnc1C(c1ccc(OC)c(OC)c1)N1CCN(c2ccc(F)cc2)CC1 (stereo unspecified) has inhibition of 14

Per the record, "COc1ccc(OC)c(S(=O)(=O)N2CCN(c3c(C)cccc3C)CC2)c1" has inhibition of 9.96

Per the record, "C/C(Cl)=C/Cn1c(SCc2ccc(Cl)cc2)nc2c1c(=O)[nH]c(=O)n2C" has inhibition of 4.08

Per the record, "O=C(c1cc(-c2cccc(O)c2)on1)N1CCN(C(c2ccccc2)c2ccccc2)CC1" has inhibition of 11

Per the record, "CCn1nnc(NC(=O)c2ccc(-c3ccc(Cl)cc3)o2)n1" has inhibition of -111

Per the record, "C=CCN=C1SCC(=O)N1S(=O)(=O)c1ccc(C)cc1" has inhibition of 5.91

Per the record, "CN(C)S(=O)(=O)c1ccc2c(c1)c(=O)c(C(=O)NCCCN1CCCCCC1)cn2C" has inhibition of 0.741

Per the record, CCOC(=O)C1CN(S(=O)(=O)c2ccc(C)cc2)CCN1S(=O)(=O)c1ccc(C)cc1 (stereo unspecified) has inhibition of 8.55

Per the record, "COc1ccc2ccccc2c1CN1CCN(C)CC1" has inhibition of 7.96

Per the record, "CCOc1ccccc1C(=O)NCc1ccc2c(c1)OCO2" has inhibition of 10.4

Per the record, CN=C(Nc1ccc2c(c1)OCO2)SC1CC(=O)N(c2ccccc2)C1=O (stereo unspecified) has inhibition of 10

Per the record, "Cc1ccccc1-c1nc(CS(=O)(=O)CC(=O)NCc2ccc3c(c2)OCO3)c(C)o1" has inhibition of 24.2

Per the record, Cc1ccc(N(C(C)C(=O)Nc2ccc(S(=O)(=O)N3CCOCC3)cc2)S(C)(=O)=O)cc1 (stereo unspecified) has inhibition of 5.72

Per the record, COc1ccccc1NC(=O)CSC1CC(=O)N(c2ccc3c(c2)OCO3)C1=O (stereo unspecified) has inhibition of 17.9

Per the record, "O=c1cc(CSc2ccccn2)c2ccccc2[nH]1" has inhibition of 10.1
